SYSTEM: human ileal bile acid transporter (Homo sapiens, UniProt Q12908)
Sequence (Q12908 1-348): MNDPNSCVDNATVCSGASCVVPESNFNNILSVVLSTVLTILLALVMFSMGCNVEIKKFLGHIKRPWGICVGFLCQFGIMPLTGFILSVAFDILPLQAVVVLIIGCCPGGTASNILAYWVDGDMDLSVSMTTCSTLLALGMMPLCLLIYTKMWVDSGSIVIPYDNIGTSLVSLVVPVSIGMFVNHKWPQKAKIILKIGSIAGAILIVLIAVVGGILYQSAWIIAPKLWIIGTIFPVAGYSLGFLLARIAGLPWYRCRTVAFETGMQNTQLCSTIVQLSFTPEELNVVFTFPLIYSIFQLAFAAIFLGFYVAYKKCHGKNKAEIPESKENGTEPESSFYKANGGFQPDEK
EXPERIMENTAL PROTOCOL: Measurement of Bile Acid Transporter Inhibitory Activity in vitro (uptake of [3H]-taurocholic acid into hIBAT-expressing Caco-2 cells)
TEST SETTINGS: 0.1 μCi [3H]-taurocholic acid, 37° C., 1 hour
RESULT TYPE: pIC50
Lab note: report pIC50 as minus log10 of the concentration in molar units, number only.

According to the records, this compound C[C@H](NC(c1ccccc1)c1cccc(Nc2c(N)c(=O)c2=O)c1)c1ccccc1 (single isomer, unassigned) [2 (isomer B)] displays pIC50 of 4.86
